Test: Acceptable daily intake (ADI) value and highest daily doses calculated from it
Settings: child weighing 10 kg
Where a SMILES comes first, the peptide text is derived from it.
Item-by-item account of Highest daily dose/10 kg BW
Write down the numeric answer in mg and omit the unit.

These recorded examples may help you get a feel for the data.
{"compound": "CC1=CC(=O)NS(=O)(=O)O1", "Highest daily dose/10 kg BW [mg]": 150}
{"compound": "O=C1NS(=O)(=O)c2ccccc21.[Na] [Saccharin sodium]", "Highest daily dose/10 kg BW [mg]": 50}
{"compound": "O=S(=O)([O-])NC1CCCCC1.[Na+] [Sodium cyclamate]", "Highest daily dose/10 kg BW [mg]": 110}

# input for lookup
Which Highest daily dose/10 kg BW value belongs to COC(=O)[C@H](Cc1ccccc1)NC(=O)[C@@H](N)CC(=O)O [Aspartame] (H-Asp-Phe-OMe) ? 400

Attribution: patent US20100298242A1
